- System: SNB-19 CNS
- RUN_DESCRIPTION: NCI-60 one-dose screen, 48 h
- CONDITION_INFO: 10 µM unless noted
- Protocol: Growth inhibition of the SNB-19 human tumor cell line is measured as a screen for anti-cancer activity. Cells are grown in 96 well plates and exposed to the test compound for 48 hours. Compounds are tested at a single concentration, which is 10^-5 M for most compounds. The reported endpoint is percent growth (GI% or GIPRCNT), where numbers from 0 - 100% represent growth inhibition, and numbers from -100% - 0 represent cell death. For example, a value of 40 represents 60% growth inhibition. […]
This is part of a sample that, as a whole, favours compounds with a hit. Of some 83,000 tested, about 20% had one in any assay. Active and inactive are the calls of the source. How the source made its calls: active means growth percent below 10; inactive means the rest.
Outcome (select one): Y for active, N for inactive

These recorded examples may help you get a feel for the data.
NC(CC(=O)O)C(=O)OCc1ccccc1 (centres undefined); N
O=C1c2cc3c(cc2-c2c1c1cc(Cl)c(Cl)cc1c(=O)n2CCCn1ccnc1)OCO3; N
CCN(CC)CCCCNc1ccc(NCCCCN(CC)CC)c2c1C(=O)c1ccccc1C2=O; N
c1c2c(cc3c1OCO3)Cc1cc3c(cc1Cc1cc4c(cc1C2)OCO4)OCO3; N
O=C(O)c1ccccc1Nc1cccc(S(F)(F)(F)(F)F)c1; N
CN(C)c1ccc(C2Nc3ccccc3-n3cccc32)cc1 (centres undefined); N
CCCCCCCCCCCCCCCCNCCC[C@@H](C)[C@H]1CC[C@H]2[C@@H]3[C@H](OCCCN)C[C@@H]4C[C@H](OCCCN)CC[C@]4(C)[C@H]3C[C@H](OCCCN)[C@]12C; Y
Cc1cc(Nc2nc(-c3cccnc3)nc3ccccc23)n[nH]1; N

Please examine the following record next.
Tell me the recorded outcome of this test for C=C(C[n+]1ccccc1)[C@@H]1CC[C@]2(C(=O)OC)CC[C@]3(C)[C@H](CC[C@@H]4[C@@]5(C)CC[C@H](O)C(C)(C)[C@@H]5CC[C@]43C)[C@@H]12 .
N

====

- Tested on: SW-620 colon
- RUN_DESCRIPTION: NCI-60 one-dose screen, 48 h (100 = growth as untreated, 0 = no growth, -100 = all killed)
- CONDITION_INFO: 10 µM unless noted
- Procedure: Growth inhibition of the SW-620 human tumor cell line is measured as a screen for anti-cancer activity. Cells are grown in 96 well plates and exposed to the test compound for 48 hours. Compounds are tested at a single concentration, which is 10^-5 M for most compounds. The reported endpoint is percent growth (GI% or GIPRCNT), where numbers from 0 - 100% represent growth inhibition, and numbers from -100% - 0 represent cell death. For example, a value of 40 represents 60% growth inhibition. […]
Compounds without any hit were thinned out: in the full panel of roughly 83,000, 20% have a hit. Activity calls are given as the source filed them. How the source made its calls: active means growth percent below 10; inactive means the rest.
Listed here are compounds together with their documented growth.

Please review the entries below; each comes with its answer.
O=c1cc(-c2ccccc2)[nH]c2ccccc12; 29.8% (inactive)
COc1ccc2nc3cc(Cl)ccc3c(N3CCN(c4ccnc(N5CCOCC5)n4)CC3)c2c1; 3.94% (active)
CCCCCCCCCCCCN1CCCC(C)C1 (stereo not drawn); 87.7% (inactive)
COc1ccc(C/C(C)=C(\c2ccc(OCCN3CCCCCC3)cc2)c2ccc(OC(=O)C3CCCCC3)cc2)cc1; 64.8% (inactive)

Reported growth of COc1cc(-c2nc3ccccc3s2)ccc1NC(=O)COc1ccc(Cl)cc1 : 87.6% (inactive)

Reported growth of CCCCCCCCCCCCCCCCCCNC(=O)[C@H]1CSC(c2ccc(F)c(OC)c2)N1 (stereo partly drawn) : -74.5% (active)

Reported growth of O=C(NC(Cc1ccccc1)C(=O)CCl)OCc1ccccc1 (stereo not drawn) : 48.4% (inactive)

Reported growth of CN1CCCCC1CCN1c2ccccc2Sc2ccc(Br)cc21 (stereo not drawn) : 79.6% (inactive)

Reported growth of CC#CC#Cc1cccc(=O)o1 : 27.3% (inactive)

Reported growth of Brc1cccc(-c2nc(-c3ccc4c(c3)OCCO4)co2)c1 : 23% [25 µM] (inactive)

Reported growth of COc1ccc(/C=C2\N=C3Sc4cc(Cl)ccc4C(=O)N3C2=O)cc1 : 97.1% (inactive)

Reported growth of COc1ccc(S(=O)(=O)NCCCNc2nccc(-c3c(-c4cccc(N)c4)nc4sccn34)n2)cc1 : 138% (inactive)

Reported growth of CC/C=C\C[C@H](F)C/C=C1/C(=O)C=C[C@@H]1C/C=C\CCCC(=O)OC : 14.3% (inactive)

Reported growth of Cc1cc(Nc2nc(-c3cccnc3)nc3ccccc23)n[nH]1 : 47% (inactive)

Reported growth of CN(CC(=O)N(Cc1ccc(C2CCCCC2)cc1)c1ccc(C(=O)NO)cc1)S(=O)(=O)c1c(F)c(F)c(F)c(F)c1F : 20.1% (inactive)

Reported growth of O=C(/C=C/c1ccc(Cl)cc1)/C=C/c1cc2ccccc2[nH]c1=O : 8.48% (active)

Reported growth of CCNS(=O)(=O)c1ncnc2nc[nH]c12 : 101% (inactive)

====

Listed here are compounds together with their documented growth.
- System: HCC-2998 colon
- RUN_DESCRIPTION: NCI-60 one-dose screen, 48 h (100 = growth as untreated, 0 = no growth, -100 = all killed)
- CONDITION_INFO: 10 µM unless noted
The panel holds about 83,000 compounds, 20% with a hit somewhere; the sample as a whole holds those more often.
Quick note: give the figure in %, leave out the unit.

Please review the entries below; each comes with its answer.
O=C(COCc1c(-c2ccccc2)no[n+]1[O-])Nc1ccc(C(=O)/C=C/c2ccc3c(c2)OCO3)cc1; 102
CC(=O)CC(C)(C)c1ccc(Cl)cc1; 98.7

Let us move to another entry and its growth.
Reported growth of O=C(Cc1ccccc1)c1ccc(Cl)cc1 : 99

====

- Test system: A549/ATCC NSCLC
- RUN_DESCRIPTION: NCI-60 one-dose screen, 48 h (100 = growth as untreated, 0 = no growth, -100 = all killed)
- CONDITION_INFO: 10 µM unless noted
The panel holds about 83,000 compounds, 20% with a hit somewhere; the sample as a whole holds those more often.
Listed here are compounds together with their documented growth.
Quick note: give the figure in %, leave out the unit.

Please review the entries below; each comes with its answer.
CCCCCCCCCC(=O)Oc1ccc(/C(=C(/C)Cc2cccc(OC)c2)c2ccc(OCCN(C)C)cc2)cc1; 108
COc1ccc2nc3cc(Cl)ccc3c(N3CCN(c4nccc(Nc5ccccc5)n4)CC3)c2c1; 65.1
COc1cc(-c2c3sc(=O)[nH]c3nc3c2c(=O)[nH]n3C(C)C)cc2c1OCO2; 94.8
C=C1CCC2C3(C)COC(c4ccc(OC)cc4Br)OC3CCC2(C)C1/C=C/C1=CCOC1=O (centres undefined); 58.2
CCOC(=O)c1cnc2ccc(OC)cc2c1Nc1cccc(S(=O)(=O)NC)c1; 103

Reported growth of CCCCCCCCCCCCCC1=NCCN1CCO : 65.1

Reported growth of CN(C)CCCC(=O)Nc1ccc(Cn2nnc3c2C(=O)c2nnn(Cc4ccc(NC(=O)CCCN(C)C)cc4)c2C3=O)cc1 : 91.9

Reported growth of Cc1cc(N/N=C/c2nc(-c3ccc(Cl)cc3)oc2C)c2cc(Cl)ccc2n1 : 21.9

Reported growth of O=C(Nc1cccc2[nH]c(C(F)(F)F)nc12)c1ccc(Br)cc1F : 16.7

====

- System: EKVX NSCLC
- RUN_DESCRIPTION: NCI-60 one-dose screen, 48 h (100 = growth as untreated, 0 = no growth, -100 = all killed)
- CONDITION_INFO: 10 µM unless noted
This is part of a sample that, as a whole, favours compounds with a hit. Of some 83,000 tested, about 20% had one in any assay.
Listed here are molecules together with their documented growth.
Quick note: give the figure in %, leave out the unit.

COc1ccc(Cl)cc1Nc1nc(C(F)(F)F)ccc1C(=O)N/N=C/c1cccnc1; 48.5
O=C([C@@H](COCc1ccccc1)N1C(=O)[C@@H](N2C(=O)OC[C@@H]2c2ccccc2)[C@H]1/C=C/c1ccccc1)N1CCC(CCN2CCCCC2)CC1; 93.1

Lab note: molecule CCN(C(=O)CN1CCN(c2cc3c(cc2F)c(=O)c(C(=O)O)cn3CC)CC1)c1nc(-c2ccccc2)cs1 tested on EKVX NSCLC; recorded growth was 21.2

Lab note: molecule Cc1cc(=O)oc2cc(Oc3nc(-c4ccc(Cl)cc4)cn4c(-c5ccc(Cl)cc5)cnc34)ccc12 tested on EKVX NSCLC; recorded growth was 106

====

- System: SF-539 CNS
- RUN_DESCRIPTION: NCI-60 one-dose screen, 48 h (100 = growth as untreated, 0 = no growth, -100 = all killed)
- CONDITION_INFO: 10 µM unless noted
Compounds without any hit were thinned out: in the full panel of roughly 83,000, 20% have a hit.
MEASURED_ENDPOINT: growth (%)
Quick note: give the figure in %, leave out the unit.

CC(C)(C)n1cc(-c2ccnc(NCCCNS(=O)(=O)c3cccc4ccccc34)c2)c(-c2cccc(O)c2)n1; 41.8
O=C(Nc1cccc2c1C(=O)c1cccc(Nc3cccc4c3C(=O)c3cccc(NC(=O)c5ccccc5)c3C4=O)c1C2=O)c1ccccc1; 109
CC(C)(C)n1cc(-c2ccnc(NCCNS(=O)(=O)c3ccccc3)c2)c(-c2cccc(O)c2)n1; 52.2
COc1cc(NC(N)=NCC(C)(C)COc2ccc(C(F)(F)F)cc2)cnc1C#N; 72

Let us move to another entry and its growth.
Reported growth of CCc1ccc(C(c2ccc(CC)cc2)C(Cl)(Cl)CCl)cc1 : 96.3
